System: Aeromonas hydrophila
protocol_details: MIC against Gram-negative bacteria: Aeromonas hydrophila
Assay type: cell-based
assay_context: A. hydrophila; 10 h cultivation at 37° C.; 5×10^5 CFU/mL
Form field: MIC (μg/mL) A. hydrophila (one value per entry).
metric_name: MIC (μg/mL) A. hydrophila (µg/mL)

INSERT INTO measurements (substance, reading) VALUES
  ('PRT162 (LIDFCALSPCAHGTCRSVGTSYKCLCDPGYHGLYCE; listed as Homo sapiens)', 25),
  ('PRT889 (DVNECVSNPCQNDATCLDQIGEFQCICMPGYEGVHCE; listed as Homo sapiens)', 12.5),
  ('PRT256 (CHLHARCVSQEGVARCRCLDGFEGDGFSC; listed as Homo sapiens)', 12.5),
  ('PRT893 (NINECSSQPCRHGGTCQDRDNAYLCFCLKGTTGPNCE; listed as Homo sapiens)', 25),
  ('PRT144 (DKKVCSSNPCQNGGTCLNLHDSFFCICPPQWKGPLCS; listed as Homo sapiens)', 50),
  ('PRT750 (DIDECQVAPGEAPTCDHHCHNHLGGFYCSCRAGYVLHRNKRTCS; listed as Homo sapiens)', 25),
  ('PRT182 (QQPICLSGCHEQNGYCSKPAECLCRPGWQGRLCN; listed as Homo sapiens)', 12.5),
  ('PRT185 (ELSECDSNPCRNGGSCKDQEDGYHCLCPPGYYGLHCE; listed as Homo sapiens)', 25),
  ('PRT181 (RADPCAARPCAHGGRCYAHFSGLVCACAPGYMGARCE; listed as Homo sapiens)', 50),
  ('PRT240 (NINECEVEPCKNGGICTDLVANYSCECPGEFMGRNCQ; listed as Homo sapiens)', 12.5),
  ('PRT248 (DVDECSARRGGCPQRCVNTAGSYWCQCWEGHSLSADGTLCV; listed as Homo sapiens)', 25),
  ('PRT232 (DIDECRQDPSTCGPNSICTNALGSYSCGCIAGFHPNPEGSQKDGNFSCQ; listed as Homo sapiens)', 12.5),
  ('PRT197 (LGYDCTTDKCNDRGVCNNKKHCHCSASYLPPDCS; listed as Homo sapiens)', 12.5),
  ('PRT190 (ECPLNYCRNGGTCVVEKNGPMCRCRQGWKGNRC; listed as Homo sapiens)', 25),
  ('PRT873 (CECYGHSNRCSYIDFLNVVTCVSCKHNTRGQHCQHCRLGYYRNGSAELDDENVCIE; listed as Homo sapiens)', 50),
  ('PRT846 (CNCSVVGSLNVNRCNQTTGQCECRPGYQGLHCETCKEGFYLNYTSGLCQP; listed as Homo sapiens)', 12.5);
